# System: MOLT-4 leukemia
# assay-remarks: NCI tumour cell line growth inhibition, 48 h
measured-attribute: TGI

Prompt: I have this compound here, Cn1c(=O)c2[nH]c(CSCc3ccccc3)nc2n(C)c1=O , and I need its recorded TGI.
Completion: > 100 µM

Prompt: Query O=[N+]([O-])c1ccc2sc(C=Nc3ccc(O)cc3)cc2c1 next
Completion: 44.6 µM

Prompt: Same lookup for CN(C)CCCNC(=O)c1cccc2ccccc12 , please.
Completion: > 100 µM

Prompt: And the next one, CC(C)(O)[C@@H]1CC[C@](C)(C2[C@@H](O)C[C@@]3(C)C4C[C@H](OC5OCC(O)C(O)C5O)[C@H]5C(C)(C)[C@@H](OC6OCC(O)C(O)C6OC6OCC(O)C(O)C6O)CC[C@@]56C[C@@]46CC[C@]23C)O1 (stereo partly specified) ?
Completion: > 100 µM

Prompt: # repeat for O=C1c2c(c(-c3ccccc3)c(-c3ccccc3)c(-c3ccccc3)c2-c2ccccc2)C(=O)N1c1cccc(Br)c1
Completion: > 100 µM

Prompt: Ok, now O=C(CC1(O)C(=O)Nc2ccccc21)c1ccc2ccccc2c1 (stereo unspecified)
Completion: > 100 µM

----------
Listed below: TGI values for each entry.
# System: SNB-19 CNS
# assay-remarks: NCI tumour cell line growth inhibition, 48 h

Some solved entries appear below for comparison.
C[C@@H](CC(O)C1OC1(C)C)[C@@H]1CC[C@]2(C)C3=CCC4C(C)(C)C(O)CC[C@]4(C)C3CCC12C (stereo partly drawn) ... > 100 µM
CC1(C)COP(=S)(c2ccccn2)O[C@@H]1c1ccccc1 (stereo partly drawn) ... > 100 µM
O=C1c2ccccc2C(=O)N1CCCC(=O)n1cc(F)c(=O)[nH]c1=O ... > 100 µM
O=C(O)c1cccc(SSc2cccc(C(=O)O)c2)c1 ... > 100 µM
CC1(C)S[C@H](c2ccccc2C(=O)O)N[C@@H]1CC(=O)O ... > 100 µM
CCOC(=O)C(C)c1nc2cc3cccnc3c(Cl)c2[nH]c1=O (stereo not drawn) ... > 100 µM

Prompt: # returns recorded TGI (system: SNB-19 CNS) for O=C1OC(c2ccccc2)=N/C1=C\c1ccc(Br)cc1
Completion: > 100 µM

Prompt: Another: C=C1C(=O)O[C@@H]2[C@@H]3O[C@@H](C[C@@H]13)[C@](C)(O)CC/C=C(\C)CCC[C@H]2C
Completion: > 49 µM

Prompt: Repeat with O=C1CCc2c(Oc3ccc4c(c3)[C@H]3[C@@H](O4)[C@@H]3c3nc4ccc(C(F)(F)F)cc4[nH]3)ccnc2N1
Completion: > 100 µM

----------
# System: NCI-H460 lung
# assay-remarks: NCI tumour cell line growth inhibition, 48 h
measured-attribute: TGI

Prompt: Recorded TGI of COc1cc(-c2nn(-c3ccc(NC(=O)NCCNS(=O)(=O)c4ccc(F)cc4)cc3)cc2-c2ccncc2)ccc1Cl , please.
Completion: 1.51 µM

Prompt: Request: COc1ccc([C@H]2CC(=O)C[C@H](c3ccc(OC)cc3OC)C23C(=O)c2ccccc2C3=O)c(OC)c1
Completion: > 100 µM

Prompt: Please do the same for CC1CCC2(OC1)OC1CC3C4CCC5CC(O)CCC5(C)C4CC(=O)OC3(C)C1C2C (stereo unspecified) as well.
Completion: > 100 µM

Prompt: Then what about the compound S=c1oc(CCCCCCCCc2nn(CNc3ccccc3)c(=S)o2)nn1CNc1ccccc1 ?
Completion: > 100 µM

Prompt: Continue with CC12c3c4cccc3Oc3cc(N)cc(c31)Oc1cc(N)cc(c12)O4
Completion: > 37.6 µM

----------
# Tested on: UO-31 renal
# assay-remarks: NCI tumour cell line growth inhibition, 48 h
// TGI lookup, one value per entry

COC(=O)Cc1c(-c2[nH]c3ccccc3c2CC(=O)OC)[nH]c2ccccc12 ... > 100 µM
COc1ccc(NC(=S)Nc2ccccc2)cc1 ... > 100 µM
Cc1cc(C)c([S@@](=O)O[C@@H]2[C@H]3OC(C)(C)O[C@H]3O[C@@H]2[C@H]2COC(C)(C)O2)c(C)c1 ... 33.2 µM
CC1(C)COP(=S)(c2ccccn2)O[C@@H]1c1ccccc1 (stereo not given in full) ... > 100 µM
Nc1ccc(C(=O)N/C(=C\C=C\c2ccco2)c2nc3c4c(ccc3[nH]2)C(=O)c2ccccc2C4=O)cc1 ... 17.9 µM
Cn1c(=O)nc2n(-c3cc(Cl)ccc3Cl)c3ccccc3nc-2c1=O ... 26.4 µM
COc1ccc(C2Oc3ccc(Cl)cc3C=C2[N+](=O)[O-])cc1OC (stereo not given) ... 3.47 µM
O=C(CC1(O)C(=O)Nc2ccccc21)c1ccc2ccccc2c1 (stereo not given) ... > 100 µM

Prompt: # query: TGI of entry COc1cc(/C=C2\CCC/C(=C\c3ccc(OC(=O)CCCCC4CCSS4)c(OC)c3)C2=O)ccc1OC(=O)CCCCC1CCSS1 (stereo not given)
Completion: > 100 µM

Prompt: Same question for CC(C)C[C@@H](NC(=O)[C@@H](Cc1cccc2ccccc12)NC(=O)N1CCOCC1)B(O)O please.
Completion: > 100 µM

----------
# Test system: BT-549 breast
# assay-remarks: NCI tumour cell line growth inhibition, 48 h
measured-attribute: TGI (µM)
Please give a number only; it is taken to be in µM.

Consider the worked cases shown below.
CC(C)N(Cc1c(F)cccc1F)c1ccc(CO)c(Cl)c1 ... 34.3
NCCNC1=CC(=O)c2nc3ccccc3c3ccnc1c23 ... 20.6
O=C1CCCC/C1=C(\Br)I ... 31.6

Prompt: Could you tell me which TGI is on file for N#CC1=C(N)OC2=C(CCCc3ccccc32)C1c1ccc([N+](=O)[O-])cc1 (stereo not given) ?
Completion: 23.9

Prompt: Follow-up item: CCOC(=O)C(=Cc1ccccc1Cl)C(=O)OCC
Completion: 4.59

Prompt: Further, for COc1ccc(C2Oc3ccc(Cl)cc3C=C2[N+](=O)[O-])cc1OC (stereo not given) ?
Completion: 2.62

----------
Recorded TGI, one value per entry.
# Test system: PC-3 prostate
# assay-remarks: NCI tumour cell line growth inhibition, 48 h
Give the quantity in µM, number only.

Would you please look over these solved cases?
CC1=C(Cc2ccccc2)C(Cc2ccccc2)=C(C)S1=O ... 54.1
C=C1C(=O)O[C@@H]2[C@@H]3O[C@@H](C[C@@H]13)[C@](C)(O)CC/C=C(\C)CCC[C@H]2C ... 5.27
CC(C)CC(NC(=O)C(Cc1ccccc1)NC(=O)[C@H]1CC[C@H](NC(=O)C(Cc2ccc(OC(C)(C)C)cc2)NC(=O)OC(C)(C)C)C1)C(N)=O (some centres undefined) ... 59.3

Prompt: Suppose we examine the compound COc1ccc2c(c1)N=C(N)n1c(nc3ccccc31)S2 ; what TGI value has been reported?
Completion: 69.1

----------
# Tested on: TK-10 renal
# assay-remarks: NCI tumour cell line growth inhibition, 48 h
Where a SMILES comes first, the peptide text is derived from it. The star is where a group is joined. Boc = CC(C)(C)OC(=O)*
measured-attribute: TGI

Solved cases below.
O=C(Cc1ccccc1CCO)NCCc1ccccc1 ... > 100 µM
CC(=O)Nc1ccccc1S(=O)(=O)c1ccccc1 ... > 100 µM
OCn1nc2c(C3OCCO3)cc3ccccc3n2c1=S ... > 100 µM
O=C(CSc1ncnc2nc[nH]c12)c1ccccc1 ... > 100 µM
CC(C)(C)OC(=O)NC(Cc1ccccc1)C(=O)N1CCCC1C(N)=O (stereo not drawn) (Boc-Phe-Pro-NH2; configuration not given here) ... > 100 µM

Now look at this one.
Prompt: Which value of TGI has been reported for COc1cc(-c2nn(-c3ccc(NC(=O)NCCNS(=O)(=O)c4ccc(F)cc4)cc3)cc2-c2ccncc2)ccc1Cl in the records?
Completion: 6.33 µM

----------
# Tested on: M14 melanoma
# assay-remarks: NCI tumour cell line growth inhibition, 48 h
# if value of TGI reaches 20 µM, tag label 1; if it stays below, tag label 0

Look over these answered cases.
CN(C)CCCN1N=Nc2cccc3cccc1c23 ... label 1
CCN(CC)CC1CCCCN1CC(=O)N1c2ccccc2NC(=O)c2ccccc21 (configuration not stated) ... label 1
Nc1nc(/C=C\c2ccc([N+](=O)[O-])s2)nc(N2CCOCC2)n1 ... label 1
COC1(OC)CC2CCCCC2=C(C)N1S(=O)(=O)c1ccccc1 (configuration not stated) ... label 1

Prompt: Would you say COc1cc2c(cc1O)CC[C@@H]1[C@@H]2CC[C@]2(C)[C@@H](OCCCN(C)C)CC[C@@H]12 shows TGI at minimum 20 µM?
Completion: label 0

Prompt: Quick one: O=C(CSc1ncnc2nc[nH]c12)c1ccccc1
Completion: label 1

Prompt: Also check CC1(C)[C@@H]2CC[C@@]1(C)C1(SS1=O)C21Cc2ccccc2C1 (some centres not stated)
Completion: label 1

Prompt: Would you kindly repeat that for COc1ccc2c(c1)O/C(=C\c1ncc([N+](=O)[O-])n1C)C2=O ?
Completion: label 0

Prompt: Now try CCOP(=O)(CN1CCNCCN(CP(=O)(OCC)OCC)CC1)OCC .
Completion: label 1

Prompt: Try this compound too: O=C(Nc1c(O)[nH]c(=S)[nH]c1=O)c1ccco1
Completion: label 1

Origin of values: PubChem BioAssay (NCI)
